Data provenance: ChEMBL document CHEMBL1157343

# Test system: RAW264.7
# Measurement Notes: Selectivity index, ratio of CC50 for mouse RAW264.7 cells to IC50 for nitric oxide production in mouse RAW264.7 cells
# Format: functional
// boundary case: Ratio CC50/IC50 equal to 2 maps to 0; strictly smaller maps to 1

Illustrative cases are given below, each with its answer.
> print(dat)
                                   molecule  assigned.category
1  COc1cc(/C=C/C(=O)OC/C(C)=C\Cc2c(O)ccc(C(=O)/C=C/c3ccc(O)cc3O)c2O)ccc1O [GEMICHALCONES C]                  1
2  CC(C)=CC1Oc2cc(O)ccc2-c2oc3cc4c(c(O)c3c(=O)c21)C=CC(C)(C)O4 (stereo unspecified) [CUDRAFLAVONE A]                  1
3  COc1cc2oc3c(c(=O)c2c(O)c1/C=C/C(C)C)C(C=C(C)C)Oc1cc(O)ccc1-3 (stereo unspecified)                  1
4   CNC(=N)NCCC[C@H](N)C(=O)O [TILARGININE]                  0
5  CC(C)=CCc1c(O)cc2oc(-c3ccc(O)cc3O)c(CC=C(C)C)c(=O)c2c1O [CUDRAFLAVONE C]                  1
6  C/C(=C/Cc1c(O)ccc(C(=O)/C=C/c2ccc(O)cc2)c1O)COC(=O)/C=C/c1ccc(O)cc1 [GEMICHALCONE B]                  0

Take the molecule CC(C)=CCc1c(O)ccc2c1O[C@H](c1ccc(O)cc1O)CC2=O and say whether its Ratio CC50/IC50 is less than 2.
0

Take the molecule CC1(C)C=Cc2c(ccc(C(=O)/C=C/c3ccc(O)cc3O)c2O)O1 and say whether its Ratio CC50/IC50 is less than 2.
0

Take the molecule CC(C)=CCc1c(O)ccc(C(=O)/C=C/c2ccc(O)cc2O)c1O [MORACHALCONE A] and say whether its Ratio CC50/IC50 is less than 2.
0

Take the molecule CC(C)=CCc1c(O)ccc(C(=O)/C=C/c2ccc(O)cc2)c1O [ISOBAVACHALCONE] and say whether its Ratio CC50/IC50 is less than 2.
0

Take the molecule COc1cc2oc(-c3ccc(O)cc3O)c(CC=C(C)C)c(=O)c2c(O)c1/C=C/C(C)C [ARTOCARPIN] and say whether its Ratio CC50/IC50 is less than 2.
0

* * *

Parameter pIC50: see the listing below.
# Test system: RAW264.7
# Measurement Notes: Cytotoxicity against mouse RAW264.7 cells by MTT assay
# Format: cell-based
Would you please state pIC50, meaning minus log10 of the concentration in mol/L, as a bare number?

Worked cases, answers included:
> print(dat)
                                   molecule  test.target  reported
1  CC(C)=CCc1c(O)ccc(C(=O)/C=C/c2ccc(O)cc2)c1O     RAW264.7      4.79
2  COc1cc2oc(-c3ccc(O)cc3O)c(CC=C(C)C)c(=O)c2c(O)c1/C=C/C(C)C     RAW264.7      4.34
3  COc1cc(/C=C/C(=O)OC/C(C)=C\Cc2c(O)ccc(C(=O)/C=C/c3ccc(O)cc3O)c2O)ccc1O     RAW264.7      4.42
4  C/C(=C/Cc1c(O)ccc(C(=O)/C=C/c2ccc(O)cc2)c1O)COC(=O)/C=C/c1ccc(O)cc1     RAW264.7      4.45
5  CC(C)=CCc1c(O)ccc2c1O[C@H](c1ccc(O)cc1O)CC2=O     RAW264.7      4.32
6  CC1(C)C=Cc2c(ccc(C(=O)/C=C/c3ccc(O)cc3O)c2O)O1     RAW264.7      4.23

pIC50 lookup needed for CC(C)=CC1Oc2cc(O)ccc2-c2oc3cc4c(c(O)c3c(=O)c21)C=CC(C)(C)O4 (stereo unspecified) , thanks.
4.38

pIC50 lookup needed for CC(C)=CCc1c(O)cc2oc(-c3ccc(O)cc3O)c(CC=C(C)C)c(=O)c2c1O , thanks.
4.23

pIC50 lookup needed for CC(C)=CCc1c(O)ccc(C(=O)/C=C/c2ccc(O)cc2O)c1O , thanks.
4.24

pIC50 lookup needed for COc1cc2oc3c(c(=O)c2c(O)c1/C=C/C(C)C)C(C=C(C)C)Oc1cc(O)ccc1-3 (stereo unspecified) , thanks.
4.34
